So I've got a bunch of compounds here, and I need their inhibition values.
# Species: Homo sapiens
# ASSAY_REMARKS: Inhibition of NF-kappaB in human L428 cells at 40 ug/ml after 2 hrs by luciferase reporter gene assay relative to control
# Format: cell-based
One number for each entry, in %.

Past entries and their recorded results:
- CHEMICAL_STRING: "O=C(/C=C/C=C/C=C/c1ccc2c(c1)OCO2)N1CCCCC1"
  inhibition [%]: 71
- CHEMICAL_STRING: "CN(C)c1ccc(/C=C/C=C/C(=O)N2CCCCC2)cc1"
  inhibition [%]: 97.7
- CHEMICAL_STRING: "COc1cc(/C=C/C=C/C(=O)N2CCCCC2)cc(OC)c1OC"
  inhibition [%]: 56.9
- CHEMICAL_STRING: "COc1ccc(/C=C/C=C/C(=O)N2CCCCC2)cc1OC"
  inhibition [%]: 78.9
- CHEMICAL_STRING: "CC(=O)Oc1ccc(/C=C/C=C/C(=O)N2CCCCC2)cc1"
  inhibition [%]: 78.1

Your task in this section: give inhibition for each listed record.
1. O=C(/C=C/C=C/c1ccc2c(c1)OCO2)N1CCCCC1
2. COc1ccc(/C=C/C=C/C(=O)N2CCCCC2)c(OC)c1OC
3. O=C(/C=C/C=C/c1ccc(OC2CCCC2)cc1)N1CCCCC1
4. COc1ccc(/C=C/C=C/C(=O)N2CCCCC2)cc1

Response given:
[86.6, 59.8, 69.7, 86.9]

Your task in this section: give inhibition for each listed record.
1. O=C(/C=C/C=C/c1ccccc1)N1CCCCC1
2. O=C(/C=C/C=C/c1ccc(O)cc1)N1CCCCC1
3. COc1ccc(/C=C/C=C/C=C/C(=O)N2CCCCC2)cc1
4. CN(C)c1ccc(/C=C/C=C/C=C/C(=O)N2CCCCC2)cc1

Response given:
1: 85.9; 2: 91.5; 3: 50.7; 4: 57.2

---

# Species on record: Homo sapiens
# ASSAY_REMARKS: Inhibition of NF-kappaB in human L428 cells at 10 ug/ml after 2 hrs by luciferase reporter gene assay relative to control
# Format: cell-based
Outcome: True for inhibition of at least 40%; False for anything lower.

# example entries with known answers
- CHEMICAL_STRING: "CC(=O)Oc1ccc(/C=C/C=C/C(=O)N2CCCCC2)cc1"
  DISCRETE_LABEL: "True"
- CHEMICAL_STRING: "O=C(/C=C/C=C/c1ccc2c(c1)OCO2)N1CCCCC1"
  DISCRETE_LABEL: "True"
- CHEMICAL_STRING: "COc1ccc(/C=C/C=C/C(=O)N2CCCCC2)cc1OC"
  DISCRETE_LABEL: "True"
- CHEMICAL_STRING: "CN(C)c1ccc(/C=C/C=C/C=C/C(=O)N2CCCCC2)cc1"
  DISCRETE_LABEL: "False"
- CHEMICAL_STRING: "O=C(/C=C/C=C/c1ccc(OC2CCCC2)cc1)N1CCCCC1"
  DISCRETE_LABEL: "True"

From here, focus on the item given below.
Challenge: Please tell me: is the compound O=C(/C=C/C=C/C=C/c1ccc2c(c1)OCO2)N1CCCCC1 at or over 40% in terms of inhibition?
Response given: False

---

So I've got a bunch of molecules here, and I need their inhibition values.
# Species on record: Homo sapiens
# ASSAY_REMARKS: Inhibition of NF-kappaB in human L428 cells at 10 ug/ml after 2 hrs by luciferase reporter gene assay relative to control
# Format: cell-based
Numbers only, in %.

Your task in this section: give inhibition for each listed record.
1. CN(C)c1ccc(/C=C/C=C/C(=O)N2CCCCC2)cc1
2. O=C(/C=C/C=C/c1ccc(O)cc1)N1CCCCC1

Response given:
95.5
68.4

Your task in this section: give inhibition for each listed record.
1. COc1cc(/C=C/C=C/C(=O)N2CCCCC2)cc(OC)c1OC
2. COc1ccc(/C=C/C=C/C(=O)N2CCCCC2)cc1
3. COc1ccc(/C=C/C=C/C=C/C(=O)N2CCCCC2)cc1
4. O=C(/C=C/C=C/c1ccccc1)N1CCCCC1

Response given:
34.1
69.7
26.4
71.9

Ref: ChEMBL document CHEMBL4041511
